Test system: SARS-CoV-2
Type: cell-based
Conditions: primary screen using live virus; compared to the mean of the non-silencing controls
# cutoff 80% applies to Duplicate B % Inhibition; >= gives Met, < gives Not met

Record excerpt, results attached:
[
  {
    "input.sequence": "GCCATTAGTGCAAAGAATA [COV4]",
    "class.label": "Met"
  },
  {
    "input.sequence": "GGCCGCAAATTGCACAATT [COV14]",
    "class.label": "Not met"
  },
  {
    "input.sequence": "CCACCAACAGAGCCTAAAA [COV18]",
    "class.label": "Not met"
  }
]

With those in mind, consider the next sequence.
Prompt: Identify whether the reported Duplicate B % Inhibition of the following sequence is 80% or greater: GCCGCAAATTGCACAATTT [COV15]
Completion: Not met

----------
Test system: SARS-CoV-2
Assay type: cell-based
Conditions: primary screen using live virus; […]
Entries annotated with measured Duplicate A % Infection
// note: answer is a bare numeric in %

Use these answered entries as a reference point.
[
  {
    "input.sequence": "GGCCGCAAATTGCACAATT [COV14]",
    "Duplicate A % Infection [%]": 9
  },
  {
    "input.sequence": "GCCATTAGTGCAAAGAATA [COV4]",
    "Duplicate A % Infection [%]": 6
  },
  {
    "input.sequence": "GCCGCAAATTGCACAATTT [COV15]",
    "Duplicate A % Infection [%]": 10
  }
]

Prompt: Name the recorded Duplicate A % Infection for GGAAGGAAGTTCTGTTGAA [COV3] .
Completion: 3

Prompt: Continue with CCACCAACAGAGCCTAAAA [COV18]
Completion: 9

----------
Test system: SARS-CoV-2 target gene fragments (Spike, ORF1ab, ORF3A & E & M, N & ORF10 & 3'UTR)
Type: cell-based
Details: Table C; 60 ng/well, 48 h, 96 well; […]
Entries annotated with measured Primary Screening (KD %, 60 ng/well, 48 h, 96 well) 293T
// note: answer is a bare numeric in %

Use these answered entries as a reference point.
[
  {
    "substance": "UGCUAAUCUUGCUGCUACUAAAAUG (antisense strand not given here) [Guangzhou25]",
    "reported.measurement": 83
  },
  {
    "substance": "CCTAATGTGTAAAATTAAT [COV24]",
    "reported.measurement": 86
  },
  {
    "substance": "GCUAAUCUUGCUGCUACUAAAAUGU [Guangzhou22]",
    "reported.measurement": 83
  },
  {
    "substance": "GGAAGGAAGTTCTGTTGAA [COV3]",
    "reported.measurement": 89
  }
]

Prompt: Name the recorded Primary Screening (KD %, 60 ng/well, 48 h, 96 well) 293T for CCAGAACAAACCCAAGGAA [COV13] .
Completion: 84

Prompt: Continue with CUAAUCUUGCUGCUACUAAAAUGUC (antisense strand not given here) [Guangzhou23]
Completion: 79

Prompt: Continue with GGACAAUCAAAAAGAGUUGdTdT [Guangzhou16]
Completion: 83

Prompt: Continue with CGCTTCGATTGTGTGCGTA [COV9]
Completion: 88

Prompt: Continue with CGACTACTAGCGTGCCTTT [COV6]
Completion: 78

Prompt: Continue with CUUGCUGCUACUAAAAUGUdTdT [Guangzhou13]
Completion: 76

Prompt: Continue with UUGGUGGUUUUAAUUUUUCACAAAU (antisense strand not given here) [Guangzhou31]
Completion: 81

----------
Tested on: SARS-CoV-2 target gene fragments (Spike, ORF1ab, ORF3A & E & M, N & ORF10 & 3'UTR)
Format: cell-based
Conditions: Table C; 60 ng/well, 48 h, 96 well; A549
d = 2'-deoxy (DNA); r = 2'-OH (RNA)
readout.kind: Primary Screening (KD %, 60 ng/well, 48 h, 96 well) A549 (%)
// note: answer is a bare numeric in %

Use these answered entries as a reference point.
[
  {
    "substance": "CAAGUCAAACAAAUUUACAdTdT (sense CAAGUCAAACAAAUUUACATT; sugars from the 5' end r19 d2, backbone not given here) [Guangzhou5]",
    "reported.measurement": 80
  },
  {
    "substance": "CUAAUCUUGCUGCUACUAAAAUGUC (antisense strand not given here) [Guangzhou23]",
    "reported.measurement": 87
  }
]

Prompt: Name the recorded Primary Screening (KD %, 60 ng/well, 48 h, 96 well) A549 for GCUAAUCUUGCUGCUACUAAAAUGU [Guangzhou22] .
Completion: 90

Prompt: Continue with UUGGUGGUUUUAAUUUUUCACAAAU (antisense strand not given here) [Guangzhou31]
Completion: 73

Prompt: Continue with UCUGCUAAUCUUGCUGCUACUAAAA (antisense strand not given here) [Guangzhou32]
Completion: 90

Prompt: Continue with CUAAUCUUGCUGCUACUAAdTdT [Guangzhou12]
Completion: 85

Prompt: Continue with CUGCUAAUCUUGCUGCUACUAAAAU [Guangzhou21]
Completion: 91

Prompt: Continue with CUUGCUGCUACUAAAAUGUdTdT [Guangzhou13]
Completion: 82

Prompt: Continue with CCTTTGAAAAAGGTGACTA [COV5]
Completion: 84

----------
Tested on: SARS-CoV-2 target gene fragments (Spike, ORF1ab, ORF3A & E & M, N & ORF10 & 3'UTR)
Assay type: cell-based
Conditions: Table C; 60 ng/well, 48 h, 96 well; […]
d = 2'-deoxy (DNA); r = 2'-OH (RNA)
Entries annotated with measured Primary Screening (KD %, 60 ng/well, 48 h, 96 well) 293T

Use these answered entries as a reference point.
[
  {
    "substance": "UUUGGUGGUUUUAAUUUUUCACAAA (antisense strand not given here) [Guangzhou30]",
    "reported.measurement": "86%"
  },
  {
    "substance": "CAAGUCAAACAAAUUUACAdTdT (sense CAAGUCAAACAAAUUUACATT; sugars from the 5' end r19 d2, backbone not given here) [Guangzhou5]",
    "reported.measurement": "75%"
  },
  {
    "substance": "CCTTTGAAAAAGGTGACTA [COV5]",
    "reported.measurement": "85%"
  },
  {
    "substance": "UCUGCUAAUCUUGCUGCUACUAAAA (antisense strand not given here) [Guangzhou32]",
    "reported.measurement": "89%"
  },
  {
    "substance": "CUGCUAAUCUUGCUGCUACUAAAAU [Guangzhou21]",
    "reported.measurement": "81%"
  }
]

Consider now this further substance.
Prompt: Name the recorded Primary Screening (KD %, 60 ng/well, 48 h, 96 well) 293T for CUAAUCUUGCUGCUACUAAdTdT [Guangzhou12] .
Completion: 70%

----------
Tested on: SARS-CoV-2
Assay type: cell-based
Settings: primary screen using live virus; average of the duplicates; vs non-silencing controls
Entries annotated with measured Mean % inhibition
// note: answer is a bare numeric in %

Use these answered entries as a reference point.
[
  {
    "input.sequence": "CCACCAACAGAGCCTAAAA [COV18]",
    "tested.on": "SARS-CoV-2",
    "Mean % inhibition, %": 68
  },
  {
    "input.sequence": "GCCGCAAATTGCACAATTT [COV15]",
    "tested.on": "SARS-CoV-2",
    "Mean % inhibition, %": 56
  },
  {
    "input.sequence": "GGCCGCAAATTGCACAATT [COV14]",
    "tested.on": "SARS-CoV-2",
    "Mean % inhibition, %": 66
  },
  {
    "input.sequence": "GGAAGGAAGTTCTGTTGAA [COV3]",
    "tested.on": "SARS-CoV-2",
    "Mean % inhibition, %": 81
  }
]

Prompt: Name the recorded Mean % inhibition for GCCATTAGTGCAAAGAATA [COV4] .
Completion: 77

----------
System: SARS-CoV-2 target gene fragments (Spike, ORF1ab, ORF3A & E & M, N & ORF10 & 3'UTR)
Type: cell-based
Conditions: Table C; 60 ng/well, 48 h, 96 well; A549
readout.kind: Primary Screening (KD %, 60 ng/well, 48 h, 96 well) A549 (%)
// note: answer is a bare numeric in %

[
  {
    "substance": "GGAAGGAAGTTCTGTTGAA [COV3]",
    "reported.measurement": 89
  },
  {
    "substance": "UUUGGUGGUUUUAAUUUUUCACAAA (antisense strand not given here) [Guangzhou30]",
    "reported.measurement": 78
  },
  {
    "substance": "GGACAAUCAAAAAGAGUUGdTdT [Guangzhou16]",
    "reported.measurement": 80
  },
  {
    "substance": "CGACTACTAGCGTGCCTTT [COV6]",
    "reported.measurement": 87
  },
  {
    "substance": "CGCTTCGATTGTGTGCGTA [COV9]",
    "reported.measurement": 74
  }
]

Prompt: # get_value(readout= Primary Screening (KD %, 60 ng/well, 48 h, 96 well) A549, system= SARS-CoV-2 target gene fragments (Spike, ORF1ab, ORF3A & E & M, N & ORF10 & 3'UTR)) for UGCUAAUCUUGCUGCUACUAAAAUG (antisense strand not given here) [Guangzhou25]
Completion: 90
